Value source: the supplement of paper PMC10065799

Molecular target: c-Src SH2;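 further: peptide library displayed on the E. coli surface as eCPX fusions, selected cells deep-sequenced, score is each peptide's frequency after selection divided by its frequency in the input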
Assay: SH2 binding enrichment of the phosphorylated peptide, bacterial display (enrichment ratio); higher = better substrate or ligand; peptides without Tyr show the background
Mark y for reported SH2 binding enrichment of 0.6 or greater; mark n for anything smaller.

>  <entry sequence>
SLIDGYYRLTE [JAK2_Y372_A377E]

>  <class label>
y

$$$$
>  <entry sequence>
ILLAGYLVMVI [SLC28A3_Y113]

>  <class label>
n

$$$$
>  <entry sequence>
CTTIHYMYMCN [TP53_Y234_N235M]

>  <class label>
y

$$$$
>  <entry sequence>
SCTFTCLLGDR [ETHE1_Y38_Y38C]

>  <class label>
y

$$$$
>  <entry sequence>
SPPPAFTPMSG [ERBB4_Y1056_Y1056F]

>  <class label>
n

$$$$
>  <entry sequence>
SVTCTYSAALN [TP53_Y126_P128A]

>  <class label>
n

$$$$
>  <entry sequence>
GVKLTYGDAQS [SLC28A1_Y404_N409S]

>  <class label>
n

$$$$
>  <entry sequence>
VEGISYDFIPT [CBS_Y308_G307S]

>  <class label>
y

$$$$
>  <entry sequence>
PLLEYYRDIFT [CDAN1_Y713]

>  <class label>
y

$$$$
>  <entry sequence>
YIRRDYEACKA [BBS4_Y48_K46R]

>  <class label>
n

$$$$
>  <entry sequence>
HCHEGYVLHGA [SVEP1_Y2921_I2922V]

>  <class label>
y

$$$$
>  <entry sequence>
VGSEDYGRDLT [SPTAN1_Y1792]

>  <class label>
n

$$$$
>  <entry sequence>
KPLMPSMRYSR [SMARCE1_Y73_Y73S]

>  <class label>
n

$$$$
>  <entry sequence>
PSTFRYERGSR [INPPL1_Y663_P659S_YF]

>  <class label>
n

$$$$
>  <entry sequence>
VLSIDYFFPPQ [AR_Y552_P549S_YF]

>  <class label>
y

$$$$
>  <entry sequence>
PKSLFYLLLKL [TRPC6_Y775]

>  <class label>
y

$$$$
>  <entry sequence>
LEISPYMLSGR [LRRK2_Y1718]

>  <class label>
y

$$$$
>  <entry sequence>
FQRLQYIKQLG [SAMHD1_Y146_R145Q]

>  <class label>
n

$$$$
>  <entry sequence>
QEIATYRPLLE [KRT14_Y415_R417P]

>  <class label>
n

$$$$
>  <entry sequence>
ESLSSYRESAK [APOC2_Y47_W48R]

>  <class label>
n

$$$$
>  <entry sequence>
DVFVSYDCGKS [SORL1_Y139_Y141C_YF]

>  <class label>
n

$$$$
